Target: T1, EsCas13d, nuclease-dead (Eubacterium siraeum, UniProt B0MS50, R295A;H300A;R849A;H854A)
T1 sequence: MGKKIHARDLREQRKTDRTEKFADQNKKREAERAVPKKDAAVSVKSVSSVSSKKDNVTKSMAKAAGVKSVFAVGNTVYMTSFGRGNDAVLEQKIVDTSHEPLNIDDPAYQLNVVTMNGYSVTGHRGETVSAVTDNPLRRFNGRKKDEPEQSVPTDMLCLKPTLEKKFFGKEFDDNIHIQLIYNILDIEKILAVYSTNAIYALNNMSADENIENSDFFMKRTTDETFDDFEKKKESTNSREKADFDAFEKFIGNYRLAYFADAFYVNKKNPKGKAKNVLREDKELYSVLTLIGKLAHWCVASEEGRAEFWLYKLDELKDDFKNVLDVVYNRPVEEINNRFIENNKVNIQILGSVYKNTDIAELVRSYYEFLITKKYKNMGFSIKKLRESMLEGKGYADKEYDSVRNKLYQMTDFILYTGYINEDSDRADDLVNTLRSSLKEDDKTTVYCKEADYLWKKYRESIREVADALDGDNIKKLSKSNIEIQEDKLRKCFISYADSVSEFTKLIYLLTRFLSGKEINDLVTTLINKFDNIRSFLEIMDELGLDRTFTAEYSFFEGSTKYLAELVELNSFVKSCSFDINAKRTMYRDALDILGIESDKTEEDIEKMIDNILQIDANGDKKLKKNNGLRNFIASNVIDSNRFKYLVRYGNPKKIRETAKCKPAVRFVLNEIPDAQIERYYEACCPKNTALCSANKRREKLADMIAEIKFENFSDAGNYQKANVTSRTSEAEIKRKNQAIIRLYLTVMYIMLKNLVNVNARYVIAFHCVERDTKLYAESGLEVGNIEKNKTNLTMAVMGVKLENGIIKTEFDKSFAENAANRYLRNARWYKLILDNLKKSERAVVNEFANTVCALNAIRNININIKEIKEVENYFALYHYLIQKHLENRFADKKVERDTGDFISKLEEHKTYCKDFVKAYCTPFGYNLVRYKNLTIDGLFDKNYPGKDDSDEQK
Assay: crRNA (strand 1, pre-loaded); Mg2+; 40 mM Tris-HCl pH 7.5, 150 mM NaCl, 6 mM MgCl2, 1 mM DTT, 0.1% Tween-20, 0.2 mg/ml BSA; 25 C; 10 min per concentration, then washed
Conditions: tags: His6-TwinStrep-SUMO cleaved; N-terminal SNAP kept (SNAP-Surface 488); label: 3' end held by stalled T7 RNA polymerase
Each entry below carries its reported pKd.
// scale note: pKd = -log10(conc_M); give the bare number

Field: example entries. Status: answers known.
>  <BINDER>
target 3 insA 3' of 7,insC 3' of 3 (mixed) RNA 1: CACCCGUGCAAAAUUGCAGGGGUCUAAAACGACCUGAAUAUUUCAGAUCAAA RNA 2: GGGAAUGGAUCCACAUCUACGAAUUCGUUUUUGAUCUGAAAUAUUACAGGCUCUGCAGAUCGGAAGAGCACACGU

>  <pKd>
7.58

$$$$
>  <BINDER>
target 1 MT 5'PFS GUU 3'PFS AAG (mixed) RNA 1: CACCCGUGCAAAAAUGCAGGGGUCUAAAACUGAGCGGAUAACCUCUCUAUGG RNA 2: GGGAAUGGAUCCACAUCUACGAAUUCGUUCCAUAGAGAGGUUAUCCGCUCAAAGAGAUCGGAAGAGCACACGU

>  <pKd>
7.43

$$$$

Turning now to a further record.
-- ask Which pKd is listed for target 1 insU 3' of 12,insC 3' of 3 (mixed) RNA 1: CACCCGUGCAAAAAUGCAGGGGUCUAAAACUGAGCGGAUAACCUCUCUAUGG RNA 2: GGGAAUGGAUCCACAUCUACGAAUUCGUACCAUAGAGAGGUUUAUCCGCUCCACCGAGAUCGGAAGAGCACACGU ?
-- reply 8.08
